// data source = patent US6740640B2

Target: DNA polymerase α (Bos taurus, UniProt A0AAA9TD94)
Construct: from tissue; host or cells: bovine thymus
Sequence (A0AAA9TD94 1-1441): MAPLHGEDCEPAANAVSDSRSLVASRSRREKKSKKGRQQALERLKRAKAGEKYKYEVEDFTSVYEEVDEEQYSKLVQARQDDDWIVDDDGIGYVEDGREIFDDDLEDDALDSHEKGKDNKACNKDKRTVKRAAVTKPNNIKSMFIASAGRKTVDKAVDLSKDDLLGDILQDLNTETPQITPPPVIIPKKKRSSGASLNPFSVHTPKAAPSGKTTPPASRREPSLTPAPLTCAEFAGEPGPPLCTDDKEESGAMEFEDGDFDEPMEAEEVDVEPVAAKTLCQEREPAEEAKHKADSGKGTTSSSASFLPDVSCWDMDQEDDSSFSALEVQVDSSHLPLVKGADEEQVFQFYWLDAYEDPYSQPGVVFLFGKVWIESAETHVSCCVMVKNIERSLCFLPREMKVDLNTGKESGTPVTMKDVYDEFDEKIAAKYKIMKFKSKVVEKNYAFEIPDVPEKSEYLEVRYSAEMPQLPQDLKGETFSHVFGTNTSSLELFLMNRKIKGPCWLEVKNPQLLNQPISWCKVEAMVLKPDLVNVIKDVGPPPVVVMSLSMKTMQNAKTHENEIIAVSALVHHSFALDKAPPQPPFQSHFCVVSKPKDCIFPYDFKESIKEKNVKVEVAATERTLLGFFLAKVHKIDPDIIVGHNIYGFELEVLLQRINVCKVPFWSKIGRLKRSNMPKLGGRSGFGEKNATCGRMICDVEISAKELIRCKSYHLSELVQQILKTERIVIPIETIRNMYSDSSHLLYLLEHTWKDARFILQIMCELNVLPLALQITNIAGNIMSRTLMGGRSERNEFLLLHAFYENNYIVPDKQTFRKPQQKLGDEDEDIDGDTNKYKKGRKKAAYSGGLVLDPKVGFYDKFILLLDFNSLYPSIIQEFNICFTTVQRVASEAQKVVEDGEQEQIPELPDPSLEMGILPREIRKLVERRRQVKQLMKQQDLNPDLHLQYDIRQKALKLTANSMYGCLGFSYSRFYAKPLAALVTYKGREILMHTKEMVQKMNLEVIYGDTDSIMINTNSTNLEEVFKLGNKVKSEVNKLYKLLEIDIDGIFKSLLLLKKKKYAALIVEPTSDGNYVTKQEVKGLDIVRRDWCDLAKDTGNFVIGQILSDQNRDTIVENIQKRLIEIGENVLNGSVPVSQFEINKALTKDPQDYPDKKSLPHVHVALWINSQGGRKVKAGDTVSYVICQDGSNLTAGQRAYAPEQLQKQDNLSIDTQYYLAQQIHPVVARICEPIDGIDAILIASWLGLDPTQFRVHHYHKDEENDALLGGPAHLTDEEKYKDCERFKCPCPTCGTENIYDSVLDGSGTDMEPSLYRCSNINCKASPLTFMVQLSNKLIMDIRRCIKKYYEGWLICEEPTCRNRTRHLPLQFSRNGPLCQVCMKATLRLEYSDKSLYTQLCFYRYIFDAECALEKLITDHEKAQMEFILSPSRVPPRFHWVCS
Test: Inhibitory effect against DNA polymerase α ([3H]-dTTP incorporation)
Format: biochemical
Conditions: DNA polymerase α from bovine thymus, 0.05 U, 37° C. for 60 minutes
Where a name gives a salt, the structure may show the parent alone.
readout label: IC50

| compound | IC50 |
| --- | --- |
| CCCCCCCCCCCCCCCC(=O)OCC(O)CO[C@H]1O[C@H](CS(=O)(=O)[O-])[C@H](O)[C@H](O)[C@H]1O.[Na+] (stereo partly drawn) [SFAG2, sodium salt] | 8.64 µM |
| CCCCCCCCCCCCCCCCCC(=O)OCC(O)CO[C@H]1O[C@H](CS(=O)(=O)[O-])[C@H](O)[C@H](O)[C@H]1O.[Na+] (stereo partly drawn) [SFAG3, sodium salt] | 8.24 µM |
| CCCCCCCCCCCCCCCC(=O)OCC(CO[C@H]1O[C@H](CS(=O)(=O)O)[C@H](O)[C@H](O)[C@H]1O)OC(=O)CCCCCCCCCCCCCCC (stereo partly drawn) [SFAG5, sodium salt] | 0.551 µM |
| CCCCCCCCCCCCCC(=O)OCC(CO[C@H]1O[C@H](CS(=O)(=O)O)[C@H](O)[C@H](O)[C@H]1O)OC(=O)CCCCCCCCCCCCC (stereo partly drawn) [SFAG4, sodium salt] | 0.657 µM |
| CCCCCCCCCCCCCC(=O)OCC(O)CO[C@H]1O[C@H](CS(=O)(=O)[O-])[C@H](O)[C@H](O)[C@H]1O.[Na+] (stereo partly drawn) [SFAG1, sodium salt] | 7.63 µM |

Query block: Find the recorded IC50 belonging to CCCCCCCCCCCCCCCCCC(=O)OCC(CO[C@H]1O[C@H](CS(=O)(=O)O)[C@H](O)[C@H](O)[C@H]1O)OC(=O)CCCCCCCCCCCCCCCCC (stereo partly drawn) [SFAG6, sodium salt] and report it.
Result block: 0.458 µM
